This collection of values is drawn from PubChem BioAssay AID256.

# Tested on: CD2F1 mice, L1210 leukemia ip, survival T/C
# Assay Comment: NCI In Vivo Anticancer Drug Screen. Data for tumor model L1210 Leukemia (intraperitoneal) in CD2F1 (CDF1) mice
# Reported Conditions: endpoint: mean survival time; dose: 400.0 mg/kg/injection; schedule: Q01DX001 (ip); vehicle: saline with Tween-80; higher = longer survival
Inconclusive results and toxic doses are left out.
The molecules listed here are annotated with their T/C.

Below, each entry is followed by its recorded T/C result.
C/C=C/C(O)C(O)/C=C/C (configuration not stated) | 97 % of control
O=c1oc2ccc(Cl)cc2c(Nc2ccccc2)c1Cl | 90 % of control
CC(C)(C)c1ccc(O)c(C(=O)N/N=C/c2ccccc2O)c1 | 93 % of control
CC(C)(C)C#C/C(=N\Nc1ccc([N+](=O)[O-])cc1[N+](=O)[O-])c1ccccc1 | 86 % of control
O=C1/C(=C\c2ccccc2)C2CCC(C2)/C1=C\c1ccccc1 | 97 % of control
CCOC(=O)CC(=O)c1ccc(C(=O)CC(=O)OCC)cc1 | 89 % of control

Measured T/C of O=C(COc1cccc(Cl)c1)NCc1ccccc1NC(=O)c1ccc(S(=O)(=O)F)cc1 : 91 % of control

Measured T/C of CC(=O)CCS(=O)(=O)O : 88 % of control
